- Tested on: pigweed, palmer
- TEST METHOD NOTES: Test A postemergence
- Assay type: in vivo, Amaranthus palmeri
- CONDITION SUMMARY: 125 g ai/ha, postemergence, 10 days; 0 to 100 scale, 0 no effect, 100 complete control
# binarize Pigweed, Palmer plant response rating: threshold 70 inclusive, high side condition met, low side condition not met

[[record]]
molecule = "Cc1ccc(-n2cnc(C(C)(C)O)n2)cc1C(=O)N1C[C@H](C)Oc2c(Cl)cccc21 [Compound 149]"
group_label = "condition met"

[[record]]
molecule = "C#CCOc1ccc(-n2cnc(C(C)C)n2)cc1C(=O)N1C[C@H](C)Oc2c(Cl)cccc21 [Compound 107]"
group_label = "condition met"

[[record]]
molecule = "C[C@H]1CN(C(=O)c2cc(Cl)cc(-n3cncn3)c2)c2cccc(Cl)c2O1 [Compound 81]"
group_label = "condition not met"

[[record]]
molecule = "C[C@H]1CN(C(=O)c2cc(I)cc(-n3cncn3)c2)c2cccc(Cl)c2O1 [Compound 137]"
group_label = "condition not met"

[[record]]
molecule = "CC(C)c1ncn(-c2ccc(OC(F)F)c(C(=O)N3C[C@H](C)Oc4c(Cl)cccc43)c2)n1 [Compound 143]"
group_label = "condition not met"

[[record]]
molecule = "C=CCOc1ccc(-n2cnc(C(C)C)n2)cc1C(=O)N1C[C@H](C)Oc2c(Cl)cccc21 [Compound 110]"
group_label = "condition not met"

[[record]]
molecule = "CCCCc1ncn(-c2cccc(C(=O)N3C[C@H](C)Oc4c(C)cccc43)c2)n1 [Compound 86]"
group_label = "condition not met"

[[record]]
molecule = "Cc1ccc(-n2cnc(C(C)C)n2)cc1C(=O)N1C[C@H](C)Oc2c(C)cccc21 [Compound 99]"
group_label = "condition met"


* * *

- Test system: barnyardgrass
- TEST METHOD NOTES: Test A preemergence
- Type: in vivo, Echinochloa crusgalli
- CONDITION SUMMARY: 1000 g ai/ha, 0 to 100 scale (0 no effect, 100 complete control), 10 days
Listing of recorded Plant response rating, Barnyardgrass by entry.
ASSAY READOUT: Plant response rating, Barnyardgrass

[[record]]
compound = "CC(C)C1CN(C(=O)c2ccnc(-n3cncn3)c2)c2cccc(Cl)c2O1 (stereo not drawn)"
numeric_result = 0

[[record]]
compound = "CC1CN(C(=O)c2ccnc(-n3cncn3)c2)c2cccc(Cl)c2O1 (stereo not drawn)"
numeric_result = 90

[[record]]
compound = "C[C@H]1CN(C(=O)c2cccc(-c3ccncc3)c2)c2cccc(Cl)c2O1"
numeric_result = 40

[[record]]
compound = "O=C(c1cccc(-n2cncn2)c1)N1CC(C2CC2)Oc2c(Cl)cccc21 (stereo not drawn)"
numeric_result = 90

[[record]]
compound = "Cc1cccc2c1O[C@@H](C)CN2C(=O)c1cccc(-n2cc(F)cn2)c1"
numeric_result = 10

[[record]]
compound = "CC1CN(C(=O)c2cccc(-n3cncn3)c2)c2ccccc2O1 (stereo not drawn)"
numeric_result = 80

[[record]]
compound = "C[C@H]1CN(C(=O)c2cccc(-n3cncn3)c2)c2cccc(Cl)c2O1"
numeric_result = 90

[[record]]
compound = "CCC1CN(C(=O)c2ccnc(-n3cncn3)c2)c2cccc(C)c2O1 (stereo not drawn)"
numeric_result = 30

[[record]]
compound = "Cc1cccc2c1OC(C)CN2C(=O)c1ccc(C#N)c(-n2cncn2)c1 (stereo not drawn)"
numeric_result = 90


* * *

- Test system: wheat
- TEST METHOD NOTES: Test C postemergence
- Format: in vivo, Triticum aestivum
- CONDITION SUMMARY: 125 g ai/ha, postemergence, 10 days; 0 to 100 scale, 0 no effect, 100 complete control
// reported Plant response rating, Wheat per item
ASSAY READOUT: Plant response rating, Wheat

[[record]]
chemical_string = "COC[C@H]1CN(C(=O)c2cc(-n3cncn3)ccc2OC)c2cccc(Cl)c2O1"
assay_readout = "Plant response rating, Wheat"
numeric_result = 50

[[record]]
chemical_string = "COC[C@H]1CN(C(=O)c2cc(-n3cnc(C4CC4)n3)ccc2OC)c2cccc(Cl)c2O1"
assay_readout = "Plant response rating, Wheat"
numeric_result = 30

[[record]]
chemical_string = "CCOCc1ncn(-c2ccc(C)c(C(=O)N3C[C@H](C)Oc4c(Cl)cccc43)c2)n1"
assay_readout = "Plant response rating, Wheat"
numeric_result = 10

[[record]]
chemical_string = "Cc1cccc2c1O[C@@H](C)CN2C(=O)c1cccc(-n2cnc(-c3ccccc3)n2)c1"
assay_readout = "Plant response rating, Wheat"
numeric_result = 10


* * *

Entries and their measured Soybean plant response rating follow.
- System: soybean
- TEST METHOD NOTES: Test C preemergence
- Assay type: in vivo, Glycine max
- CONDITION SUMMARY: Test C, preemergence, 125 g ai/ha; 0 to 100 scale (0 no effect, 100 complete control)
ASSAY READOUT: Soybean plant response rating

[[record]]
compound = "CCC(O)(CC)c1ncn(-c2ccc(C)c(C(=O)N3C[C@H](C)Oc4c(Cl)cccc43)c2)n1 [Compound 180]"
numeric_result = 50

[[record]]
compound = "Cc1ccc(-n2cnc(C3(C(F)(F)F)CCC3)n2)cc1C(=O)N1C[C@H](C)Oc2c(Cl)cccc21 [Compound 168]"
numeric_result = 60

[[record]]
compound = "Cc1cccc2c1O[C@@H](C)CN2C(=O)c1cccc(-n2cnc(C#C[Si](C)(C)C)n2)c1 [Compound 284]"
numeric_result = 0


* * *

- Test system: corn
- TEST METHOD NOTES: Test A preemergence
- Assay type: in vivo, Zea mays
- CONDITION SUMMARY: 125 g ai/ha, visual injury after 10 days, 0 to 100 scale, 0 is no effect, 100 is complete control
Readings of Plant response rating, Corn for the listed compounds
ASSAY READOUT: Plant response rating, Corn

[[record]]
compound = "Cc1cccc2c1O[C@@H](C)CN2C(=O)c1cccc(-n2cnc(C3CC3)n2)c1"
assay_readout = "Plant response rating, Corn"
numeric_result = 30

[[record]]
compound = "CCC(C)c1ncn(-c2cccc(C(=O)N3C[C@H](C)Oc4c(C)cccc43)c2)n1 (some centres unmarked)"
assay_readout = "Plant response rating, Corn"
numeric_result = 10

[[record]]
compound = "Cc1cccc2c1O[C@@H](C)CN2C(=O)c1cccc(-n2cnn(C(C)C)c2=O)c1"
assay_readout = "Plant response rating, Corn"
numeric_result = 0

[[record]]
compound = "Cc1c(C(=O)N2CC(C)Oc3c(Cl)cccc32)cccc1-n1cncn1 (centres unmarked)"
assay_readout = "Plant response rating, Corn"
numeric_result = 0

[[record]]
compound = "C[C@H]1CN(C(=O)c2cccc(-n3cnc(Br)n3)c2)c2cccc(Cl)c2O1"
assay_readout = "Plant response rating, Corn"
numeric_result = 0

[[record]]
compound = "Cc1cccc2c1O[C@@H](C)CN2C(=O)c1cc(-n2cncn2)ccc1F"
assay_readout = "Plant response rating, Corn"
numeric_result = 0

[[record]]
compound = "Cc1cccc2c1O[C@@H](C)CN2C(=O)c1cccc(-n2cnc(Cl)n2)c1"
assay_readout = "Plant response rating, Corn"
numeric_result = 30

[[record]]
compound = "Cc1ccc(-n2cncn2)cc1C(=O)N1C[C@H](C)Oc2c(C)cccc21"
assay_readout = "Plant response rating, Corn"
numeric_result = 0

[[record]]
compound = "CCc1ccc(-n2cnc(C3CCC3)n2)cc1C(=O)N1C[C@H](C)Oc2c(Cl)cccc21"
assay_readout = "Plant response rating, Corn"
numeric_result = 0

[[record]]
compound = "C#CCOc1ccc(-n2cnc(C(C)C)n2)cc1C(=O)N1C[C@H](C)Oc2c(Cl)cccc21"
assay_readout = "Plant response rating, Corn"
numeric_result = 10

[[record]]
compound = "C[C@H]1CN(C(=O)c2cc(Br)cc(-n3cncn3)c2)c2cccc(Cl)c2O1"
assay_readout = "Plant response rating, Corn"
numeric_result = 0

[[record]]
compound = "Cc1cccc2c1O[C@@H](C)CN2C(=O)c1cccc(-n2cnc(C3CCC3)n2)c1"
assay_readout = "Plant response rating, Corn"
numeric_result = 0

[[record]]
compound = "CC1CN(C(=O)c2cccc(-n3cncn3)c2)c2c(F)cccc2O1 (centres unmarked)"
assay_readout = "Plant response rating, Corn"
numeric_result = 0

[[record]]
compound = "Cc1cccc2c1O[C@@H](C)CN2C(=O)c1cccc(-n2cnc(C(C)C)n2)c1"
assay_readout = "Plant response rating, Corn"
numeric_result = 0

[[record]]
compound = "Cc1cccc2c1O[C@@H](C)CN2C(=O)c1cccc(-n2ncnc2C(C)C)c1"
assay_readout = "Plant response rating, Corn"
numeric_result = 0

[[record]]
compound = "Cc1cccc2c1O[C@@H](C)CN2C(=O)c1cccc(-n2cnc(C3CCCCC3)n2)c1"
assay_readout = "Plant response rating, Corn"
numeric_result = 0

[[record]]
compound = "Cc1cccc2c1O[C@@H](C)CN2C(=O)c1cccc(-n2cnc(C(F)(F)F)n2)c1"
assay_readout = "Plant response rating, Corn"
numeric_result = 30


* * *

- Test system: soybean
- TEST METHOD NOTES: Test C preemergence
- Type: in vivo, Glycine max
- CONDITION SUMMARY: Preemergence, 125 g ai/ha; 0 to 100 scale, 0 no effect, 100 complete control
Reported Plant response rating, Soybean values for a set of compounds
ASSAY READOUT: Plant response rating, Soybean

[[record]]
compound = "C[C@H]1CN(C(=O)c2cc(-n3cncn3)cc(C(F)(F)F)c2)c2cccc(Cl)c2O1"
study_target = "soybean"
numeric_result = 0

[[record]]
compound = "C[C@H]1CN(C(=O)c2cccc(-n3cnc(C4CC4)n3)c2)c2cccc(Cl)c2O1"
study_target = "soybean"
numeric_result = 40

[[record]]
compound = "CCc1ncn(-c2cc(C(=O)N3CC(C(F)(F)F)Oc4c(C)cccc43)ccn2)n1 (stereo not shown)"
study_target = "soybean"
numeric_result = 30

[[record]]
compound = "CC(=O)N(C)c1ncn(-c2cccc(C(=O)N3C[C@H](C)Oc4c(C)cccc43)c2)n1"
study_target = "soybean"
numeric_result = 0

